biological target: Carbonic anhydrase 7 (Homo sapiens) (UniProt P43166); assay: Activation of […] human carbonic anhydrase-7 incubated for 15 mins prior to testing by stopped-flow CO2 hydrase assay
Sequence (P43166 whole entry): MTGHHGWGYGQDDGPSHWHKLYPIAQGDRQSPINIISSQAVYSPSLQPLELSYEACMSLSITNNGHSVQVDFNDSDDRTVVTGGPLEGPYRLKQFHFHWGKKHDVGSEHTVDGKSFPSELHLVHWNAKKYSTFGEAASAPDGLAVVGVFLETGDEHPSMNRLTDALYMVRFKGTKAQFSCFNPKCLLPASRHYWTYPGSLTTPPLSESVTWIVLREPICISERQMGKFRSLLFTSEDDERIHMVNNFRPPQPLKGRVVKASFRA
Quantity Kind: KA (µM)

[[record]]
compound_structure = "COC(=O)[C@H](Cc1c[nH]cn1)NC(=O)CCN"
quantity_kind = "KA"
unit_symbol = "µM"
recorded_result = 0.84


a = COC(=O)[C@H](Cc1nc(Br)[nH]c1Br)NC(=O)OC(C)(C)C
b = COC(=O)[C@H](Cc1nc(Cl)[nH]c1Cl)NC(=O)OC(C)(C)C
[ask] Sorting ascending by KA, which comes first: a or b ? To answer, give the label that identifies your chosen option.
[reply] a

A = COC(=O)[C@@H](N)Cc1nc[nH]c1I
B = COC(=O)[C@H](Cc1nc[nH]c1Br)NC(=O)OC(C)(C)C
[ask] Sorting ascending by KA, which comes first: A or B ? To answer, give the label that identifies your chosen option.
[reply] A
(A: 6.2 µM, B: 40.2 µM)

1 = COC(=O)[C@@H](N)Cc1nc(I)[nH]c1I
2 = COC(=O)[C@H](Cc1nc(I)[nH]c1I)NC(=O)OC(C)(C)C
[ask] Higher KA between 1 and 2 ? To answer, give the label that identifies your chosen option.
[reply] 2
(2: 10.3 µM, 1: 3.6 µM)

1 = COC(=O)[C@H](Cc1nc(Br)[nH]c1Br)NC(=O)CCNC(=O)OC(C)(C)C
2 = COC(=O)[C@H](Cc1nc[nH]c1Cl)NC(=O)CCNC(=O)OC(C)(C)C
[ask] Higher KA between 1 and 2 ? To answer, give the label that identifies your chosen option.
[reply] 2
(2: 12.1 µM, 1: 4 µM)

a = COC(=O)[C@H](Cc1nc[nH]c1Br)NC(=O)CCN
b = CC(C)(C)OC(=O)NCCc1nc(Br)[nH]c1Br
c = COC(=O)[C@H](Cc1nc(I)[nH]c1I)NC(=O)CCN
[ask] Would you mind ranking these compounds by ascending KA? Quick reminder: the answer is the labels in the order asked.
[reply] a, c, b

###

target: UniProt:O43570; assay: Activation of transmembrane human carbonic anhydrase-12 incubated for 15 mins prior to testing by stopped-flow CO2 hydrase assay
Sequence (O43570 whole entry): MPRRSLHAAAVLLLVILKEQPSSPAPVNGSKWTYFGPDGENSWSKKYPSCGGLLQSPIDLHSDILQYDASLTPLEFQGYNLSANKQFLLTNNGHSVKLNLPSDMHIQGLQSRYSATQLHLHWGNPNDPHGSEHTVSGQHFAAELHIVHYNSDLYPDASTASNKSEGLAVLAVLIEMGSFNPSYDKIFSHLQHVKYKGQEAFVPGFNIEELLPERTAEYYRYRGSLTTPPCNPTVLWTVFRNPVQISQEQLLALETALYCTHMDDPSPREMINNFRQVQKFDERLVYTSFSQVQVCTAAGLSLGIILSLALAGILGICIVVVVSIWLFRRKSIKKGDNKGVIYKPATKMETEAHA
Quantity Kind: KA (µM)

Some entries whose results are on file:
[[record]]
compound_structure = "COC(=O)[C@H](Cc1nc[nH]c1I)NC(=O)OC(C)(C)C"
quantity_kind = "KA"
recorded_result = 6.1

[[record]]
compound_structure = "COC(=O)[C@H](Cc1nc[nH]c1I)NC(=O)CCN"
quantity_kind = "KA"
recorded_result = 40.1

[[record]]
compound_structure = "COC(=O)[C@H](Cc1nc(Cl)[nH]c1Cl)NC(=O)OC(C)(C)C"
quantity_kind = "KA"
recorded_result = 25.3

[[record]]
compound_structure = "NCCc1nc(Br)[nH]c1Br"
quantity_kind = "KA"
recorded_result = 25.2


I = COC(=O)[C@@H](N)Cc1nc(Br)[nH]c1Br
II = COC(=O)[C@@H](N)Cc1nc[nH]c1I
[ask] Sorting ascending by KA, which comes first: I or II ? To answer, give the label that identifies your chosen option.
[reply] I
(I: 0.83 µM, II: 14.3 µM)

a = COC(=O)[C@H](Cc1nc[nH]c1Br)NC(=O)OC(C)(C)C
b = COC(=O)[C@@H](N)Cc1nc(Cl)[nH]c1Cl
[ask] Sorting ascending by KA, which comes first: a or b ? To answer, give the label that identifies your chosen option.
[reply] a

P = COC(=O)[C@H](Cc1nc[nH]c1I)NC(=O)CCNC(=O)OC(C)(C)C
Q = COC(=O)[C@@H](N)Cc1nc(I)[nH]c1I
[ask] Higher KA between P and Q ? To answer, give the label that identifies your chosen option.
[reply] P

Sourced from ChEMBL document CHEMBL3352757
